The entries that follow carry IC50 values tested on Tyrosine-protein phosphatase non-receptor type 1 (Homo sapiens), drawn from several published reports.
Biological target: Tyrosine-protein phosphatase non-receptor type 1 (Homo sapiens)
Sequence (P18031 whole entry): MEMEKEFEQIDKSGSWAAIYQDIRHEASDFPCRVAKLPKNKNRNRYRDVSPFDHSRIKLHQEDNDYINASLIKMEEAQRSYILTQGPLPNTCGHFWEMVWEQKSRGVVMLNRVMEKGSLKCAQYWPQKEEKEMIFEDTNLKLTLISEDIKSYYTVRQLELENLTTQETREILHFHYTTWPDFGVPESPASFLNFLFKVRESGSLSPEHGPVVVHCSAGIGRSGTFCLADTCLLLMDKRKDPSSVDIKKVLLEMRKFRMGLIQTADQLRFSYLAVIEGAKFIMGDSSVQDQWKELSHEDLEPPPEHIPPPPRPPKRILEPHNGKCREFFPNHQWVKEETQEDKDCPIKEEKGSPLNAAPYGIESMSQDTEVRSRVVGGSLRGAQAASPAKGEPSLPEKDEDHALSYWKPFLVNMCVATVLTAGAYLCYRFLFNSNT
So basically, if IC50 comes in under 4 µM it's 1 (yes), and if it's 4 µM or more it's 0 (no).

Solved entries (count: 4):
# smiles str, assayed target, category
records = [
    ("O=C1NC(=O)/C(=C/c2ccc(C(=O)Nc3nnc(SCc4ccc(F)c(F)c4)s3)cc2)S1", "Tyrosine-protein phosphatase non-receptor type 1 (Homo sapiens)", "1 (yes)"),
    ("CCOC(=O)c1nc2c(s1)c(-c1ccc(O)cc1)c(O)c1oc3cc(O)c(O)cc3c12", "Tyrosine-protein phosphatase non-receptor type 1 (Homo sapiens)", "0 (no)"),
    ("COc1cccc(CSc2nnc(NC(=O)c3ccc(/C=C4/SC(=O)NC4=O)cc3)s2)c1", "Tyrosine-protein phosphatase non-receptor type 1 (Homo sapiens)", "1 (yes)"),
    ("Cc1ccccc1CSc1nnc(NC(=O)c2ccc(/C=C3/SC(=O)NC3=O)cc2)s1", "Tyrosine-protein phosphatase non-receptor type 1 (Homo sapiens)", "0 (no)"),
]

Report whether reported IC50 is lower than 4 µM (strictly) for COC(=O)c1nc2c(s1)c(-c1ccc(O)cc1)c(O)c1oc3cc(O)c(O)cc3c12
0 (no)

Report whether reported IC50 is lower than 4 µM (strictly) for C[C@@H]1CC[C@@H]([C@@H](c2ccccc2)c2c(O)c(C=O)c(O)c(C=O)c2O)[C@]2(C)CC[C@@H](C(C)(C)O)C=C12
0 (no)

Report whether reported IC50 is lower than 4 µM (strictly) for COC(=O)c1nc2c(-c3ccc(O)c(O)c3)c(O)c(O)c(-c3ccc(O)cc3)c2s1
0 (no)

Report whether reported IC50 is lower than 4 µM (strictly) for OCc1nc2c(s1)c(-c1ccc(O)cc1)c(O)c1oc3cc(O)c(O)cc3c12
1 (yes)
